Reference for the values: patent US20260356856A1

- Experimental system: KRas G12S (Homo sapiens, UniProt P01116, G12S)
- Construct: Biotinylated KRas (corresponding to amino acids 1-169, produced at Accelegan Inc.); biotin (biotinylated); purchased Accelegan Inc
- Sequence (P01116 1-169 isoform P01116-2 G12S): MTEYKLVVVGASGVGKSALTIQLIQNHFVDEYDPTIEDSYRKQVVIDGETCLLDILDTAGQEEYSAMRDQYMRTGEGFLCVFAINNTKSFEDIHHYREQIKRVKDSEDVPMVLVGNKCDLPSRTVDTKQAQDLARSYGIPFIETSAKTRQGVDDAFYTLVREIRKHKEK
- Assay details: KRas binding assay, TR-FRET displacement of Cy5 labelled tracer
- Run conditions: 60-minute incubation at room temperature, 1% DMSO, pH 7.5
Measure: IC50 (nM)

| Compound | Operator symbol | Reported result |
| --- | --- | --- |
| O=C(Oc1ccccc1)[C@@H]1[C@@H]2CC[C@H]1CN(c1nc(OCC34CCCN3CCC4)nc3c(F)c(-c4cccc5cccc(F)c45)ncc13)C2 | = | 75600 |
| O=C(Oc1ccc(F)c(F)c1)C1CCCN(c2nc(OCC34CCCN3CCC4)nc3c(F)c(-c4cccc5cccc(F)c45)ncc23)CC1 (centres unmarked) | = | 30100 |
| O=C(Oc1ccc(F)c(F)c1)[C@@H]1CCN(c2nc(OCC34CCCN3CCC4)nc3c(F)c(-c4cccc5cccc(F)c45)ncc23)C[C@@H]1O | = | 20400 |
| CCc1c(F)ccc2cc(O)cc(-c3ncc4c(N5CCN(C(=O)n6ccnc6)CC5)nc(OC[C@@]56CCCN5C[C@H](F)C6)nc4c3F)c12 | = | 3 |
| N#Cc1c(N)sc2c(F)ccc(-c3c(Cl)cc4c(N5CCC(C(=O)Oc6ccccc6F)CC5)nc(OC[C@@]56CCCN5C[C@H](F)C6)nc4c3F)c12 | = | 20 |
| N#Cc1ccccc1OC(=O)C1CCN(c2nc(OCC34CCCN3CCC4)nc3c(F)c(-c4cccc5cccc(F)c45)ncc23)CC1 | > | 100000 |
| CC(=O)N(C)C(=O)CCCN(C)c1nc(OC[C@@]23CCCN2C[C@H](F)C3)nc2c(F)c(-c3ccc(F)c4sc(N)c(C#N)c34)c(Cl)cc12 (atropisomer, axis not shown; (aS)) [Example 260] | < | 2 |
| CCc1c(F)ccc2cc(O)cc(-c3ncc4c(N5C[C@@H](C)N(C(=O)n6ccc(C)n6)[C@@H](C)C5)nc(OC[C@@]56CCCN5C[C@H](F)C6)nc4c3F)c12 | = | 93 |
| CCc1c(F)ccc2cc(O)cc(-c3ncc4c(N5CCN(C(=O)n6ccc(C)n6)C6(CC6)C5)nc(OC[C@@]56CCCN5C[C@H](F)C6)nc4c3F)c12 (single isomer, unassigned) | = | 146 |
| CCc1c(F)ccc2cc(O)cc(-c3ncc4c(N5CCC(C(=O)n6cc(C(C)C)cn6)CC5)nc(OC[C@@]56CCCN5C[C@H](F)C6)nc4c3F)c12 | = | 197 |
| Cc1ccn(C(=O)C2CCCN(c3nc(OC[C@@]45CCCN4C[C@H](F)C5)nc4c(F)c(-c5ccc(F)c6sc(N)c(C#N)c56)c(Cl)cc34)CCC2)n1 | = | 46 |
